These data points were gathered from patent US11725000B2.

Test system: U2OS_Bim cells
Test: Apoptosis inhibition assay (Bim-induced apoptosis, cell viability by ATP level)
Format: cell-based
Settings: U2OS_Bim cells; means of duplicates; numbering of Tables 4a/4b; read-out: EC50
Procedure: A chemical library containing 200000 compounds was screened according to the following procedure: U2OS_Bim cells (a cell line in which the BH3-only protein Bim can be inducibly expressed by the addition of Doxycycline to the growth medium)^[2] were plated in 384-well plates with 30 μl medium at a density of 500 cells per well. […] After 24 hrs, cell viability was determined by measuring the ATP levels using a Cell Titer-Glo kit (Promega, G7570) according to the manufacturer's instructions. […]
pEC50: −log10 of the molar value.
measured.property: pEC50

Enquiry: pEC50 for Cc1cc(-c2cnc(=O)n(Cc3ccc4c(c3)OCO4)c2)nc(S(=O)(=O)CCC(OCc2ccccc2F)c2ccccc2)n1 (centres unmarked) [Compound 307] ?
Return: 6.00 to 9.00

Enquiry: Moving on to the next compound: C[S+]([O-])c1nc(N2CCOCC2)cc(C(F)(F)F)n1 (centres unmarked) [Compound 82]
Return: > 4.00

Enquiry: Moving on to the next compound: COc1ccc(Cn2cccc2-c2cc(C(F)(F)F)nc(S(C)(=O)=O)n2)cc1OC [Compound 85]
Return: 5.00 to 6.00

Enquiry: Moving on to the next compound: CS(=O)(=O)c1nc(-c2ccn(Cc3cccc(Cl)c3)c2)cc(C(F)(F)F)n1 [Compound 93]
Return: > 4.00

Enquiry: Moving on to the next compound: Cc1cc(-c2cc(F)c(=O)n(Cc3ccc4ocnc4c3)c2)nc(S(=O)(=O)CCC(OCc2ccccc2F)c2ccccc2)n1 (centres unmarked) [Compound 329]
Return: 6.00 to 9.00

###

EC50: recorded values
System: U2OS_Bim cells
Assay: Apoptosis inhibition assay (Bim-induced apoptosis, cell viability by ATP level)
Format: cell-based
Conditions: U2OS_Bim cells; means of duplicates; numbering of Tables 4a/4b; read-out: EC50

Sample records with EC50:
C[S+]([O-])c1nc(-c2ccn(Cc3cccc(Cl)c3)c2)cc(C(F)(F)F)n1 (stereo not drawn) [Compound 94]; < 100000 nM
COc1cc(Cn2cc(-c3cc(C(F)(F)F)nc(S(C)(=O)=O)n3)ccc2=O)ccn1 [Compound 135]; 1 to 1000 nM
COc1ccc(Cn2cc(-c3cc(-c4ccccc4F)nc(S(=O)(=O)CCC(OCc4ccccc4)c4ccccc4)n3)ccc2=O)cc1OC (stereo not drawn) [Compound 298]; < 100000 nM

Enquiry: EC50 for CS(=O)(=O)c1nc(-c2ccn(Cc3ccc(Cl)cc3)c2)cc(C(F)(F)F)n1 [Compound 95] ?
Return: < 100000 nM

Enquiry: Moving on to the next compound: C#CCOc1cccc(-c2cc(C(F)(F)F)nc(S(C)(=O)=O)n2)c1 [Compound 71]
Return: < 100000 nM

###

System: U2OS_Bim cells
Experiment: Apoptosis inhibition assay (Bim-induced apoptosis, cell viability by ATP level)
Assay type: cell-based
Details: U2OS_Bim cells; means of duplicates; numbering of Tables 4a/4b; read-out: EC50
EC50: recorded values

Sample records with EC50:
CN(C)C(=O)c1cccc(-c2cc(C(F)(F)F)nc(S(C)(=O)=O)n2)c1; 1 to 10 µM
COCCCS(=O)(=O)c1nc(-c2ccc(=O)n(Cc3ccc(OC)c(OC)c3)c2)cc(C(F)(F)F)n1; 0.001 to 1 µM
COc1cccc(Cn2ccc(-c3cc(C(F)(F)F)nc([S+](C)[O-])n3)c2)c1 (stereo not shown); < 100 µM
C[S+]([O-])c1nc(-c2cccc3ccccc23)cc(C(F)(F)F)n1 (stereo not shown); < 100 µM
Cc1cc(-c2cc(F)c(=O)n(Cc3ccc4c(c3)OCO4)c2)nc(S(=O)(=O)CCC(OCc2ccccc2F)c2ccccc2)n1 (stereo not shown); 0.001 to 1 µM
COc1cc(Cn2cc(-c3cc(C(F)F)nc(SC)n3)ccc2=O)cc(F)c1OC; 0.001 to 1 µM

Could you now look at the following molecule, please?
Enquiry: EC50 for CNC(=O)c1ccccc1-c1cc(C(F)(F)F)nc(S(C)(=O)=O)n1 ?
Return: < 100 µM
